Reported values of pKd for individual entries
- system-tested: T1, SNTB1, Q13884
- T1 sequence (Q13884 107-205, limits assumed, looked up): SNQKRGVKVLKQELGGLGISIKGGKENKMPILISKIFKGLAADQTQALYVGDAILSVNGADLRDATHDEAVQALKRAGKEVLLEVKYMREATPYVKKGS
- experiment-description: holdup assay
- Set-up: key: below the threshold = too weak to quantify, mostly under pKd 3.1 to 4
- experimental-parameters: plain residues with an end cap or a label only (N-terminal biotin on a linker: ado-ado)
Form: value (number only, do not type unit).

Guide cases for pKd, answers given:
{"columns": ["binder", "value-observed"],
 "data": [
  ["NKSEPFLTWL [WWTR1, Q9GZV5]", 3.79],
  ["QRYPGNQTTC [CCL24, O00175]", 3.6],
  ["QLKSGRDSTV [TMEM178A, Q8NBL3]", 4.1]
]}

INPUT: Can you look up the measured pKd of AKADAQESRL [PLCB2, Q00722] for me?
OUTPUT: 4.43

INPUT: Next entry: GVHSNDHSVV [LPAR1, Q92633]
OUTPUT: 3.69
